Each item that follows carries a reported viability, T/C.
- System: OVCAR-5 complex spheroids with HUVEC/MSC, viability, % test/control
- experimentSummary: Anticancer human tumor OVCAR-5 cell line growth inhibition [AhR];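 further: spheroids exposed to compounds for 7 days; 100% = DMSO vehicle control wells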
- runParameters: second compound 1 µM; first compound 0.0949 µM; stronger effect = lower value
Respond numerically; units are % and should not be typed.

CC(C)CC(NC(=O)C(Cc1ccccc1)NC(=O)c1cnccn1)B(O)O (stereo not drawn) + Cc1cncc(-c2nc(NCCc3c[nH]c4ccccc34)c3ncn(C(C)C)c3n2)c1 = 33.6
O=C(C=Cn1cnc(-c2cc(C(F)(F)F)cc(C(F)(F)F)c2)n1)NNc1cnccn1 + Cc1cncc(-c2nc(NCCc3c[nH]c4ccccc34)c3ncn(C(C)C)c3n2)c1 = 106

Okay, now this compound:
IN: Fill blank: measured viability, T/C of the compound CC(C)CC(NC(=O)C(Cc1ccccc1)NC(=O)c1cnccn1)B(O)O (stereo not drawn) + Cc1ccccc1N=Nc1ccc(NC(=O)c2ccnn2C)c(C)c1 is ____.
OUT: 25.5

---

- System: OVCAR-5 complex spheroids with HUVEC/MSC, viability, % test/control
- experimentSummary: Anticancer human tumor OVCAR-5 cell line growth inhibition [AhR];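 further: spheroids exposed to compounds for 7 days; 100% = DMSO vehicle control wells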
- runParameters: second compound 0.1 µM; first compound 1 µM; stronger effect = lower value
Each item that follows carries a reported viability, T/C.
Respond numerically; units are % and should not be typed.

Worked examples, 5 compounds total:
COc1cc(Nc2ncc3c(n2)-c2ccc(Cl)cc2C(c2c(F)cccc2OC)=NC3)ccc1C(=O)O + Cc1cncc(-c2nc(NCCc3c[nH]c4ccccc34)c3ncn(C(C)C)c3n2)c1 = 58
CC(C)c1c(-c2ccccc2)nc2c(C#N)c[nH]n2c1=O + CC(CO)NC(=O)c1cc(-c2ccc(Cl)cc2)nn(-c2cnn(C)c2)c1=O = 115
CC(C)c1c(-c2ccccc2)nc2c(C#N)c[nH]n2c1=O + Cc1ccccc1N=Nc1ccc(NC(=O)c2ccnn2C)c(C)c1 = 101
CC1COCCN1c1cc(C2(S(C)(=N)=O)CC2)nc(-c2ccnc3[nH]ccc23)n1 (stereo unspecified) + Cc1cncc(-c2nc(NCCc3c[nH]c4ccccc34)c3ncn(C(C)C)c3n2)c1 = 101
NS(=O)(=O)OCC1CC(n2ccc3c(NC4CCc5ccccc54)ncnc32)CC1O (stereo unspecified) + CC(CO)NC(=O)c1cc(-c2ccc(Cl)cc2)nn(-c2cnn(C)c2)c1=O = 16.1

IN: Given the entry COc1cccc2c1C(=O)c1c(O)c3c(c(O)c1C2=O)CC(O)(C(=O)CO)CC3OC1CC(N)C(O)C(C)O1 (stereo unspecified) + Cc1cncc(-c2nc(NCCc3c[nH]c4ccccc34)c3ncn(C(C)C)c3n2)c1 , what viability, T/C was observed with OVCAR-5 complex spheroids with HUVEC/MSC, viability, % test/control?
OUT: 27.9

---

- Test system: OVCAR-5 complex spheroids with HUVEC/MSC, viability, % test/control
- experimentSummary: Anticancer human tumor OVCAR-5 cell line growth inhibition [AhR];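 further: spheroids exposed to compounds for 7 days; 100% = DMSO vehicle control wells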
- runParameters: second compound 1 µM; first compound 0.1 µM; stronger effect = lower value
Hi all, reminder that labels come from viability, T/C, split as group 1 = under 70%, group 2 = from 70% up to 90%, group 3 = 90% and over

Nc1ccn(C2OC(CO)C(O)C2(F)F)c(=O)n1 (stereo not drawn) + CC(CO)NC(=O)c1cc(-c2ccc(Cl)cc2)nn(-c2cnn(C)c2)c1=O = group 1
NS(=O)(=O)OCC1CC(n2ccc3c(NC4CCc5ccccc54)ncnc32)CC1O (stereo not drawn) + Cc1ccccc1N=Nc1ccc(NC(=O)c2ccnn2C)c(C)c1 = group 1
Nc1ncn(C2CC(O)C(CO)O2)c(=O)n1 (stereo not drawn) + Cc1ccccc1N=Nc1ccc(NC(=O)c2ccnn2C)c(C)c1 = group 2

IN: // bin(item) where item = Nc1ccccc1NC(=O)c1ccc(CNC(=O)OCc2cccnc2)cc1 + Cc1ccccc1N=Nc1ccc(NC(=O)c2ccnn2C)c(C)c1
OUT: group 3

IN: // bin(item) where item = O=C(C=Cc1cccc(S(=O)(=O)Nc2ccccc2)c1)NO + CC(CO)NC(=O)c1cc(-c2ccc(Cl)cc2)nn(-c2cnn(C)c2)c1=O
OUT: group 3

IN: // bin(item) where item = Cn1ncnc1C1c2n[nH]c(=O)c3cc(F)cc(c23)NC1c1ccc(F)cc1 (stereo not drawn) + Cc1cncc(-c2nc(NCCc3c[nH]c4ccccc34)c3ncn(C(C)C)c3n2)c1
OUT: group 3

IN: // bin(item) where item = COc1cc(Nc2ncc3c(n2)-c2ccc(Cl)cc2C(c2c(F)cccc2OC)=NC3)ccc1C(=O)O + Cc1cncc(-c2nc(NCCc3c[nH]c4ccccc34)c3ncn(C(C)C)c3n2)c1
OUT: group 2

IN: // bin(item) where item = Nc1ccn(C2OC(CO)C(O)C2(F)F)c(=O)n1 (stereo not drawn) + Cc1ccccc1N=Nc1ccc(NC(=O)c2ccnn2C)c(C)c1
OUT: group 1

IN: // bin(item) where item = NS(=O)(=O)OCC1CC(n2ccc3c(NC4CCc5ccccc54)ncnc32)CC1O (stereo not drawn) + CC(CO)NC(=O)c1cc(-c2ccc(Cl)cc2)nn(-c2cnn(C)c2)c1=O
OUT: group 1

IN: // bin(item) where item = CC1COCCN1c1cc(C2(S(C)(=N)=O)CC2)nc(-c2ccnc3[nH]ccc23)n1 (stereo not drawn) + CC(CO)NC(=O)c1cc(-c2ccc(Cl)cc2)nn(-c2cnn(C)c2)c1=O
OUT: group 3

---

Each item that follows carries a reported viability, T/C.
- System: OVCAR-5 complex spheroids with HUVEC/MSC, viability, % test/control
- experimentSummary: Anticancer human tumor OVCAR-5 cell line growth inhibition [AhR];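 further: spheroids exposed to compounds for 7 days; 100% = DMSO vehicle control wells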
- runParameters: second compound 3.16 µM; first compound 0.00949 µM; stronger effect = lower value
- From the text: Multicellular complex tumor spheroid response to aryl hydrocarbon receptor antagonists in combination with a variety of drugs and investigational agents in selected tumor cell lines […] Compounds. […] If the clinical Cmax for an agent had not been determined, the highest concentration tested was 10 microM (Table 1). […]

Worked examples, 2 compounds total:
CCc1c2c(nc3ccc(O)cc13)-c1cc3c(c(=O)n1C2)COC(=O)[C@]3(O)CC + Cc1cncc(-c2nc(NCCc3c[nH]c4ccccc34)c3ncn(C(C)C)c3n2)c1 = 48.4%
CCc1c2c(nc3ccc(O)cc13)-c1cc3c(c(=O)n1C2)COC(=O)[C@]3(O)CC + CC(CO)NC(=O)c1cc(-c2ccc(Cl)cc2)nn(-c2cnn(C)c2)c1=O = 48.5%

IN: Fill blank: measured viability, T/C of the compound CC(C)CC(NC(=O)C(Cc1ccccc1)NC(=O)c1cnccn1)B(O)O (stereo not drawn) + Cc1cncc(-c2nc(NCCc3c[nH]c4ccccc34)c3ncn(C(C)C)c3n2)c1 is ____.
OUT: 75.9%

---

- Tested on: OVCAR-5 complex spheroids with HUVEC/MSC, viability, % test/control
- experimentSummary: Anticancer human tumor OVCAR-5 cell line growth inhibition [AhR];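 further: spheroids exposed to compounds for 7 days; 100% = DMSO vehicle control wells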
- runParameters: second compound 0.316 µM; first compound 1 µM; stronger effect = lower value
quantityName: viability, T/C (%)
Respond numerically; units are % and should not be typed.

Worked examples, 2 compounds total:
CC1COCCN1c1cc(-c2ccnn2C)c2ccnc(-c3ccn[nH]3)c2n1 (stereo unspecified) + Cc1ccccc1N=Nc1ccc(NC(=O)c2ccnn2C)c(C)c1 = 28.2
CC(C)c1c(-c2ccccc2)nc2c(C#N)c[nH]n2c1=O + Cc1ccccc1N=Nc1ccc(NC(=O)c2ccnn2C)c(C)c1 = 103

IN: Fill blank: measured viability, T/C of the compound COc1cc(C2c3cc4c(cc3C(OC3OC5COC(C)OC5C(O)C3O)C3COC(=O)C23)OCO4)cc(OC)c1O (stereo unspecified) + Cc1ccccc1N=Nc1ccc(NC(=O)c2ccnn2C)c(C)c1 is ____.
OUT: 68.8

IN: Fill blank: measured viability, T/C of the compound CC1COCCN1c1cc(C2(S(C)(=N)=O)CC2)nc(-c2ccnc3[nH]ccc23)n1 (stereo unspecified) + Cc1cncc(-c2nc(NCCc3c[nH]c4ccccc34)c3ncn(C(C)C)c3n2)c1 is ____.
OUT: 103

IN: Fill blank: measured viability, T/C of the compound Nc1ccccc1NC(=O)c1ccc(CNC(=O)OCc2cccnc2)cc1 + CC(CO)NC(=O)c1cc(-c2ccc(Cl)cc2)nn(-c2cnn(C)c2)c1=O is ____.
OUT: 31

IN: Fill blank: measured viability, T/C of the compound Nc1ccn(C2OC(CO)C(O)C2(F)F)c(=O)n1 (stereo unspecified) + Cc1ccccc1N=Nc1ccc(NC(=O)c2ccnn2C)c(C)c1 is ____.
OUT: 26.9

---

- Test system: OVCAR-5 complex spheroids with HUVEC/MSC, viability, % test/control
- experimentSummary: Anticancer human tumor OVCAR-5 cell line growth inhibition [AhR];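 further: spheroids exposed to compounds for 7 days; 100% = DMSO vehicle control wells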
- runParameters: second compound 0.316 µM; first compound 0.001 µM; stronger effect = lower value
Each item that follows carries a reported viability, T/C.

IN: Fill blank: measured viability, T/C of the compound Cn1ncnc1C1c2n[nH]c(=O)c3cc(F)cc(c23)NC1c1ccc(F)cc1 (stereo unspecified) + Cc1cncc(-c2nc(NCCc3c[nH]c4ccccc34)c3ncn(C(C)C)c3n2)c1 is ____.
OUT: 104%
